Molecular target: Bromodomain-containing protein 4 (Homo sapiens, UniProt O60885)
Experiment: Inhibition of human BRD4-BD1 (49 to 170 residues) expressed in Escherichia coli BL21(DE3) using N-C:SGRG-K(Ac)-GG-K(Ac)-GLG-K(Ac)-GGA-K(Ac)-RHRKVGG-K(biotin) as substrate preincubated for 15 mins followed by substrate addition measured after 5 mins by AlphaScreen assay
Class key for IC50 values: bottom end = under 3 µM, midrange = from 3 µM up to 20 µM, top end = 20 µM and over

compound=O=C(c1ccccc1)c1ccc(NS(=O)(=O)c2cccc(Br)c2)cc1 class_label="top end"
compound=N#Cc1c(-c2ccc(Cl)cc2)cc(-c2cccs2)nc1SCC(=O)NCC(=O)O class_label="bottom end"
compound=CC(=O)N(C)c1ccc(NC(=O)COc2ccc(Br)cc2Cl)cc1 class_label="top end"
compound=CN(CCCNc1cc(=O)oc2ccccc12)C(=O)c1cccc(Cl)c1 class_label=midrange
compound=Cc1ccn(-c2ccc(NCCNC(=O)c3ccc(Br)o3)nn2)n1 class_label="top end"
compound=CN(CCCNc1cc(=O)oc2ccccc12)C(=O)c1cccs1 class_label="bottom end"
compound=O=C(CN1CC(=O)Oc2ccccc21)OCC(=O)c1ccc(Br)cc1 class_label="bottom end"
compound=COc1ccc(/C=C(\NC(=O)c2ccc(C)cc2)C(=O)NCCCn2ccnc2)cc1 class_label=midrange
compound=O=C(NCCNc1ccc(-n2cccn2)nn1)c1ccccc1 class_label=midrange
compound=CCCn1nnc(NC(=O)COc2ccc(Cl)cc2C)n1 class_label="top end"
compound=CCN1C(=O)c2cccc3c(S(=O)(=O)N4CCCC4)ccc1c23 class_label="bottom end"
compound="COC(=O)C(O)(c1cc(C)c2cccnc2c1O)C(F)(F)F (stereo not drawn)" class_label="bottom end"
compound=CCOC(=O)c1ncccc1NC(=O)CC(=O)Nc1cccnc1C(=O)OCC class_label="bottom end"
compound=COc1ccccc1NC(=O)CCSc1cccc2cccnc12 class_label=midrange
compound=O=C(NCCNc1ccc(-n2cccn2)nn1)c1ccccc1Cl class_label=midrange
compound=CN(CCCNc1cc(=O)oc2ccccc12)C(=O)C(C)(C)C class_label=midrange
compound=O=C(Nc1cccc(S(=O)(=O)N2CCCC2)c1)c1nc[nH]n1 class_label="top end"
compound=CN(CCCNc1cc(=O)oc2ccccc12)C(=O)c1ccco1 class_label="bottom end"
compound="CC(=O)CC(c1ccccc1)c1c(O)c2ncccc2oc1=O (stereo not drawn)" class_label="bottom end"
compound="CCc1nnc(NC(=O)C2(C)COC(c3ccccc3)OC2)s1 (stereo not drawn)" class_label="top end"
compound=Cc1ccc(C)c(NC(=O)CC(c2ccccc2)c2ccccc2)c1 class_label="top end"
compound=CCCNS(=O)(=O)c1ccc2c3c(cccc13)C(=O)N2C class_label=midrange
